Target: GTPase HRas (Homo sapiens)
Test: blockade of GTP loading onto mutant Ras – biochemical, activated mutant, multiplex bead flow cytometry, dose response (AID 1341);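 also: GST-tagged constitutively activated Ras mutant immobilized on beads and multiplexed with other GTPases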
Conditions: bead-based flow cytometry, Bodipy-FL-GTP binding; series mostly up to 100 µM
Measured potencies and affinities stand elsewhere. The source made the active and inactive calls.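 The calls were made as follows: active = dose-response curve with midpoint inside the tested range, moderate steepness, significant amplitude and little compound fluorescence or bead-attachment interference; inactive = the rest.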
Endpoint Name: outcome

Example entries and their recorded answers appear below.
Smiles | outcome
COc1cc2[nH]c(=S)nc(NCCCOC(C)C)c2cc1OC | inactive
CC(=O)c1ccc(C#CC(=O)c2ccc([N+](=O)[O-])cc2)cc1 | inactive
Cc1ccc(Sc2c(C)nn(C(=O)C3CC3)c2C)cc1 | inactive
CCOC(=O)c1c(NC(=O)/C=C/c2ccc3c(c2)OCO3)sc(C)c1CC | inactive
O=C(O)c1ccc(CSCc2ccccc2Cl)o1 | inactive
COc1ccc(C(=O)Nc2cc(Cl)ccc2C(=O)O)cc1 | inactive
COc1ccccc1CNC(=O)c1c(N)n(CCCN2CCOCC2)c2nc3ccccc3nc12 | inactive
O=C1CS/C(=N/N=C2C3CC4CC(C3)CC2C4)N1 | inactive
COCc1cc(C)nc(N/N=C/c2ccc(-c3ccc(C(=O)O)c(Cl)c3)o2)c1C#N | inactive
COc1ccc(OC)c(CCNCc2ccc(C(=O)O)s2)c1 | inactive

[in] Dear colleague, I am looking for the recorded outcome of the following molecule: "Cn1c(NC(=S)Nc2ccccc2)nc2ccccc21"
[out] inactive

* * *

Assay: yeast AGP1-GFP level changes, GLN3 branch – cell-based, multiplex flow cytometry, S. cerevisiae, primary screen (AID 1887);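 also: AGP1-GFP fusion strain of S. cerevisiae within a five-strain barcoded multiplex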
Conditions: 3 h, at 10 µM, active compounds read high
Results filed as inconclusive are left out.
Endpoint Name: GFP response, % of DMSO (%)
Numbers only, in %.

Example entries and their recorded answers appear below.
Compound | Value Units | GFP response, % of DMSO
CC(=O)CC(c1ccc([N+](=O)[O-])cc1)c1c(O)c2ccccc2oc1=O (stereo not given) | % | 114
Cn1nc(-c2ccc(Cl)cc2)nc2c(=O)n(C)c(=O)nc1-2 | % | 76.7
COc1cc2c(cc1OC)C(c1ccccc1)=NCC2 | % | 97.7
O=C(CSCc1ccccc1)NCCCN1CCOCC1 | % | 107

Could you tell me GFP response, % of DMSO for each of these compounds? They are listed below.
1. Cc1ccc(C2CC(=O)C(C=NCCN3CCN(CC(=O)Nc4cc(C)cc(C)c4)CC3)=C(O)C2)cc1 (stereo not given)
2. Cc1ccc(/C=N/NC(=O)C2(C)CC2(Br)Br)cc1 (stereo not given)
3. Cc1ccc2c(c1)c(=O)c1c3n2CCN(C(=O)CCl)C3CC1 (stereo not given)
4. Clc1cc(-c2ccc(/C=N/n3cnnc3)o2)ccc1Br
5. CCOC(=O)[C@H]1O[C@@H]1C(=O)N[C@@H](CC(C)C)C(=O)NCCC(C)C
6. C=C(C)C(=O)Nc1ccc(NC(C)C)cc1

[out]
1: 105; 2: 105; 3: 111; 4: 99.9; 5: 91.7; 6: 101

Could you tell me GFP response, % of DMSO for each of these compounds? They are listed below.
1. COc1ccc(CN2CCC(=O)NC2=O)cc1
2. Cc1cccc2c(C(=O)O)cc(-c3cccnc3)nc12
3. CC12CCC(C(=O)NCc3ccc4c(c3)OCO4)(CC1=O)C2(C)C (stereo not given)
4. Cn1c(=S)n(C)c2ccccc21
5. c1cnc(N2CCN(Cc3ccc4c(c3)OCO4)CC2)nc1

[out]
96.5
101
107
104
103

Could you tell me GFP response, % of DMSO for each of these compounds? They are listed below.
1. CCOc1ccc2nc(S(N)(=O)=O)sc2c1
2. CCc1nc(N)nc(N)c1-c1ccc(Cl)cc1
3. CCOC(=O)C(=Cc1ccccc1OC)C(=O)OCC
4. O=C(NC1CC1)C1CCN(C2CCN(C(=O)Cc3ccc(F)cc3)CC2)CC1
5. COCCn1c(SCCOc2ccccc2)nc2ccccc2c1=O

[out]
1: 103; 2: 101; 3: 92.9; 4: 90.5; 5: 96.8

Could you tell me GFP response, % of DMSO for each of these compounds? They are listed below.
1. CCOc1ccc(N2C(=O)CNC2=S)cc1
2. CN1C2CCC1CC(OC(c1ccccc1)c1ccccc1)C2 (stereo not given)
3. CCOC(=O)C1=C2c3ccc4ccccc4c3CC(C)(C)N2C(=O)C1=O
4. COc1cc(OC)c(-c2nc3cnccc3n2C)cc1OC
5. Cn1cc(/C=C/C(=O)c2ccccc2)c2ccccc21

[out]
109
98
85.1
102
89.7
